Entry source: paper PMC8252719

- Assayed system: UniProt P68106
- Sequence (P68106 whole entry): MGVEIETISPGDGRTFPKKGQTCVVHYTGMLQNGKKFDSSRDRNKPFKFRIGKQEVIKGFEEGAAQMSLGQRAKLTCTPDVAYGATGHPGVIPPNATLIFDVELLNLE
- Procedure details: competitive fluorescence polarization assay, FKBP12.6
- Format: binding
- Assay setup: competitive fluorescence polarization assay; >80 μM = highest measurable concentration before compound precipitation; ± = standard error from three independent measurements; SEM; read-out: FKBP12.6 K i
Measured property: Ki
Write the numeric value and append its unit.

Ki lookup needed for COc1ccc(CC[C@@H](OC(=O)[C@@H]2CCCCN2C(=O)[C@H](c2cc(OC)c(OC)c(OC)c2)C2CCCCC2)c2cccc(OCC(=O)O)c2)cc1OC [SAFit1, reference compound] , thanks. 19 nM

###

- Assayed system: FKBP12 (Homo sapiens, UniProt P62942)
- Sequence (P62942 whole entry): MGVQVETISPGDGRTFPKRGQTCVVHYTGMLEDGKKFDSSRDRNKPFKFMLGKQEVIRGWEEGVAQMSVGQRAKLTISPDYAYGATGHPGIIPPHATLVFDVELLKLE
- Procedure details: competitive fluorescence polarization assay, FKBP12
- Format: binding
- Assay setup: competitive fluorescence polarization assay; >80 μM = highest measurable concentration before compound precipitation; ± = standard error from three independent measurements; SEM; read-out: FKBP12 K i
Measured property: Ki (nM)
Reply with just the number (in nM).

Give its Ki value. Item: COc1ccc(CC[C@@H](OC(=O)[C@@H]2CCCCN2C(=O)[C@H](c2cc(OC)c(OC)c(OC)c2)C2CCCCC2)c2cccc(OCC(=O)O)c2)cc1OC [SAFit1, reference compound] 163
